Test system: chloramphenicol acetyltransferase (CAT) reporter gene
protocol-summary: Level of CAT expression by ELISA after IAA induction in Erlenmeyer flask cultures
Assay type: cell-based, E. coli
test-conditions: relative to wild-type vector pTEXwt = 1
Quick reference for CAT expression among some substances

These recorded examples may help you get a feel for the data.
pTEX11′: vector derived from pTEX9′ with additional deletion, SEQ ID No. 35 (DNA UGAGGAGAGUAAUCAUGAAAGAAUUC); 124
pTEXCAT: wild-type reference plasmid: pTEXmp18 (Ptrp promoter, TrpL leader) with the CAT reporter gene cloned at EcoRI/PstI; SEQ ID No. 19 (DNA AAGGGUAUCUAGAAUUAUGAAAGCAAUUUUCGUACUGAAUGCGGAAUUC); 1
pTEX12′: vector derived from pTEX9′, initiation codon directly upstream of the cloning site, SEQ ID No. 37 (DNA UGAGGAGAGUAAUCAUGGAAUUC); 155
pTEX9′: clone from the (R7N6) library, SEQ ID No. 31, deletion of region Ile4Asn8 (DNA UGAGGAGAGUAAUCAUGAAAGCAGCGGAAUUC; expressed or natural sequence); 249

Now consider a different substance.
In: Returns the measured CAT expression for the input substance. Input: pTEX10′: vector derived from pTEX9′ with additional deletion, SEQ ID No. 33 (DNA UGAGGAGAGUAAUCAUGAAAGCAGAAUUC)
Out: 253
